Source: patent US20100068215A1

Molecular target: T1, GDF8 (UniProt O14793 267-375)
T1 construct: also called myostatin; Growth and Differentiation Factor-8
T1 sequence (looked up): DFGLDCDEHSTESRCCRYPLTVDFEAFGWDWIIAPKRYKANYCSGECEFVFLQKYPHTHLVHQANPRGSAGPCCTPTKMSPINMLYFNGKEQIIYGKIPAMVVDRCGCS
Assay: Biacore; ActRIIB-Fc captured by anti-hFc antibody, ligand injected

BINDER	Kd, nM
ActRIIB(K74A 20-134)-hFc (Fc fusion, not shown: human Fc domain (hFc)) GRGEAETRECIYYNANWELERTNQSGLERCEGEQDKRLHCYASWRNSSGTIELVAKGCWLDDFNCYDRQECVATEENPQVYFCCCEGNFCNERFTHLPEAGGPEVTYEPPPTAPTGGG	0.0718
ActRIIB(R64K 20-129)-hFc (Fc fusion, not shown: human Fc domain (hFc)) GRGEAETRECIYYNANWELERTNQSGLERCEGEQDKRLHCYASWKNSSGTIELVKKGCWLDDFNCYDRQECVATEENPQVYFCCCEGNFCNERFTHLPEAGGPEVTYEPPGGG	2.15
